# EXPERIMENT_DESCRIPTION: In vitro cytotoxicity, MTT cell viability assay in HepG2 cells
# Type: cell-based
# CONDITION_SET: human, Cytotoxicity CC50
READOUT: CC50 at 7 days

Here is how some molecules turned out for CC50 at 7 days.
{"columns": ["MOLECULE", "CC50 at 7 days"],
 "data": [
  ["Cc1cc(NC(=O)c2ccc(F)c(C(F)(F)C(=O)N3CC(F)(F)CC3C(=O)O)c2)ccc1F (stereo not shown)", "> 30 µM"],
  ["O=C(Nc1ccc(Cl)cc1F)c1ccc(Cl)c(C(F)(F)C(=O)N2CCC(O)CC2)c1", "> 30 µM"],
  ["Cc1cc(NC(=O)c2ccc(F)c(C(F)(F)C(=O)N3C4COCC3CC(=NO)C4)c2)ccc1F", "5 to 30 µM"]
]}

Now consider a different molecule.
Request: Please look at this molecule and report its CC50 at 7 days: `Cc1cc(NC(=O)c2ccc(F)c(C(F)(F)C(=O)N3CCC(O)CC3)c2)ccc1F`
Result: > 30 µM
